- Assay Name: Metabolic stability in human liver microsome assessed as half life at 1 uM measured up to 60 mins in presence of NADPH by LC-MS/MS analysis
- Type: ADME
- Setup Conditions: liver microsomes
Endpoint Name: half-life at 1 µM (min)
Give bare numbers, in min.

Cn1c(=O)n(C2CCC(=O)NC2=O)c2cccc(C#CCN3CCN(CC(=O)N4CCC5(CC4)Cc4cc(NC(=O)c6cnn7cccnc67)c(N6CCC(CO)CC6)cc4O5)CC3)c21 (stereo not drawn) : 3

Provide half-life at 1 µM values for the following items, in order.
1. Cn1c(=O)n(C2CCC(=O)NC2=O)c2cccc(C#CCO[C@H]3CC[C@H](CN4CCC5(Cc6cc(NC(=O)c7cnn8cccnc78)c(N7CCC(CO)CC7)cc6O5)C4)CC3)c21 (stereo partly drawn)
2. Cn1c(=O)n(C2CCC(=O)NC2=O)c2cccc(C#CCO[C@H]3CC[C@@H](CN4CCC5(CC4)Cc4cc(NC(=O)c6cnn7cccnc67)c(N6CCC(CO)CC6)cc4O5)CC3)c21 (stereo partly drawn)

Return:
[100, 49]
